// reported IC50 for each item listed
tested system: SARS-CoV-2 PLpro (Severe acute respiratory syndrome coronavirus 2, UniProt P0DTD1)
Construct: containing 60 nM papain-like protease
test details: biochemical
stated conditions: 60 nM papain-like protease, 50 μM Z-RLRGG-AMC, pH 7.5, 37° C.; read-out: SARS-CoV-2 PLpro IC50
Counter-ions that a name gives are not always drawn.
experimental readout: IC50

> print(dat)
                                   compound   result
1  Cc1ccc(N2CCN[C@@H](C(C)C)C2)cc1C(=O)N[C@H](C)c1cccc2ccccc12   < 2 µM
2  Cc1ccc(N2CCN(C)CC2)cc1C(=O)N[C@H](C)c1cccc(-c2cccc(C(=O)N3CCN(C)CC3)c2)c1   < 2 µM
3  COc1ccc([C@@H](C)NC(=O)c2cc(N3CCN(C)CC3)ccc2C)cc1OCCN [Example 295, Dihydrochloride Salt]  < 10 µM
4  COc1ccc([C@@H](C)NC(=O)c2cc(N3CC4CN(C)CC4C3)ccc2C)cc1-c1cnn(C)c1 (stereo partly shown)   < 2 µM

----------
tested system: SARS-CoV-2 PLpro (Severe acute respiratory syndrome coronavirus 2, UniProt P0DTD1)
Construct: containing 60 nM papain-like protease
test details: biochemical
stated conditions: 60 nM papain-like protease, 50 μM Z-RLRGG-AMC, pH 7.5, 37° C.; read-out: SARS-CoV-2 PLpro IC50
pIC50: −log10 of the molar value. Structures can show the parent of a compound that is named as a salt.
experimental readout: pIC50

> print(dat)
                                    molecule                             tested.system  experimental.readout  result
 1  Cc1ccc(N2CCN(C)CC2)cc1C(=O)N[C@H](C)c1cccc(-c2ccsc2)c1  SARS-CoV-2 PLpro (Severe acute respiratory syndrome coronavirus 2, UniProt P0DTD1)                 pIC50  > 5.70
 2  CCOc1cc(-c2cnn(C)c2)cc([C@@H](C)NC(=O)c2cc(N3CCN(C)CC3)ccc2C)c1  SARS-CoV-2 PLpro (Severe acute respiratory syndrome coronavirus 2, UniProt P0DTD1)                 pIC50  > 5.70
 3  Cc1ccc(N2CCN(C)CC2)cc1C(=O)N[C@H](C)c1cccc(-c2c(C)nn(C)c2C)c1  SARS-CoV-2 PLpro (Severe acute respiratory syndrome coronavirus 2, UniProt P0DTD1)                 pIC50  > 5.70
 4  Cc1ccc(N2CCN(C)CC2)cc1C(=O)N[C@H](C)c1cccc(C(=O)NC[C@@H](O)CO)c1 [Example 308, hydrochloride salt]  SARS-CoV-2 PLpro (Severe acute respiratory syndrome coronavirus 2, UniProt P0DTD1)                 pIC50  > 5.00
 5  COc1ccc([C@@H](C)NC(=O)c2cc(N3CCN(C)CC3)ccc2C)cc1-c1cnn(CCO)c1  SARS-CoV-2 PLpro (Severe acute respiratory syndrome coronavirus 2, UniProt P0DTD1)                 pIC50  > 5.70
 6  COc1cc(OC)c([C@@H](C)NC(=O)c2cc(N3CCN(C)CC3)ccc2C)cc1-c1ccccc1  SARS-CoV-2 PLpro (Severe acute respiratory syndrome coronavirus 2, UniProt P0DTD1)                 pIC50  > 5.70
 7  Cc1ccc(N2CCN(C)CC2)cc1C(=O)N[C@H](C)c1cccc(-c2cccc(N3CCNCC3)c2)c1  SARS-CoV-2 PLpro (Severe acute respiratory syndrome coronavirus 2, UniProt P0DTD1)                 pIC50  > 5.70
 8  C[C@@H](NC(=O)c1cccc(C2CCN(CCC(=O)O)CC2)c1)c1cccc2ccccc12  SARS-CoV-2 PLpro (Severe acute respiratory syndrome coronavirus 2, UniProt P0DTD1)                 pIC50  > 4.00
 9  COc1ccc([C@@H](C)NC(=O)c2cc(N3CCN(C)CC3)ccc2C)cc1-c1cnn(C)c1  SARS-CoV-2 PLpro (Severe acute respiratory syndrome coronavirus 2, UniProt P0DTD1)                 pIC50  > 5.70
10  Cc1ccc(N2CCN(C)CC2)cc1C(=O)N[C@H](C)c1cccc(-c2ccc(N3CCNCC3)cc2)c1 [Example 73, dihydrochloride salt]  SARS-CoV-2 PLpro (Severe acute respiratory syndrome coronavirus 2, UniProt P0DTD1)                 pIC50  > 5.70
11  COc1ccc([C@@H](C)NC(=O)c2cc(C3CCN(C)CC3)ccc2C)cc1Br  SARS-CoV-2 PLpro (Severe acute respiratory syndrome coronavirus 2, UniProt P0DTD1)                 pIC50  > 5.70
12  COc1ccc([C@@H](C)NC(=O)c2cc(N3CCN(C)CC3)ccc2C)cc1-c1cn[nH]c1  SARS-CoV-2 PLpro (Severe acute respiratory syndrome coronavirus 2, UniProt P0DTD1)                 pIC50  > 5.70
13  Cc1ccc(N2CCN(C)CC2)cc1C(=O)N[C@H](C)c1cccc(-c2cccc(C(=O)NC[C@@H](O)CO)c2)c1  SARS-CoV-2 PLpro (Severe acute respiratory syndrome coronavirus 2, UniProt P0DTD1)                 pIC50  > 5.70
14  COc1cc([C@@H](C)NC(=O)c2cc(N3CCN(C)CC3)ccc2C)ccc1OCc1ccccc1  SARS-CoV-2 PLpro (Severe acute respiratory syndrome coronavirus 2, UniProt P0DTD1)                 pIC50  > 5.70
15  Cc1ccc(-c2cccnc2)cc1C(=O)N[C@H](C)c1cccc2ccccc12  SARS-CoV-2 PLpro (Severe acute respiratory syndrome coronavirus 2, UniProt P0DTD1)                 pIC50  > 4.70

----------
// reported IC50 for each item listed
tested system: SARS-CoV-2 PLpro (Severe acute respiratory syndrome coronavirus 2)
Construct: containing 60 nM papain-like protease
test details: biochemical
stated conditions: 60 nM papain-like protease, 50 μM Z-RLRGG-AMC, pH 7.5, 37° C.; read-out: SARS-CoV-2 PLpro IC50
Structures can show the parent of a compound that is named as a salt.
experimental readout: IC50

> print(dat)
                                   compound  experimental.readout       result
1  COc1cc([C@@H](C)NC(=O)c2cc(N3CCN(C)CC3)ccc2C)ccc1-c1cnn(C)c1                  IC50    < 2000 nM
2  COc1ccc([C@@H](C)NC(=O)c2cc(N3CCC4(CC3)CNC4)ccc2C)cc1-c1cnn(C)c1                  IC50    < 2000 nM
3  Cc1ccc(N2CCN(C)CC2)cc1C(=O)N[C@H](C)c1cncc(-c2cn(C)nc2C)c1                  IC50   < 10000 nM
4  Cc1ccc(N2CCN(C)CC2)cc1C(=O)N[C@H](C)c1cccc(-c2cccc(C(=O)NCCO)c2)c1                  IC50    < 2000 nM
5  Cc1ccc(N2CCN(C)CC2)cc1C(=O)N[C@H](C)c1cccc(-c2ccccc2CO)c1                  IC50    < 2000 nM
6  Cc1ccc(N2CCN(C)CC2)cc1C(=O)N[C@H](C)c1cccc2c1OCO2 [Example 33, hydrochloride salt]                  IC50   < 10000 nM
7  C[C@@H](NC(=O)c1cccc(-c2ccnc(N3CCN(C)CC3)n2)c1)c1cccc2ccccc12                  IC50  > 100000 nM

----------
tested system: SARS-CoV-2 PLpro (Severe acute respiratory syndrome coronavirus 2, UniProt P0DTD1)
Construct: containing 60 nM papain-like protease
test details: biochemical
Where a name gives a salt, the structure may show the parent alone.
experimental readout: IC50

> print(dat)
                                   compound      result
1  COc1cc(-c2cnn(C)c2)cc([C@@H](C)NC(=O)c2cc(N3C[C@H]4CC[C@@H](C3)N4CC3CC3)ccc2C)c1   < 2000 nM
2  Cc1ccc(C2=CCNCC2)c(C)c1C(=O)N[C@H](C)c1cccc2ccccc12   < 2000 nM
3  COc1cc([C@@H](C)NC(=O)c2cc(N3C[C@H]4CC[C@@H](C3)N4)ccc2C)ccc1OCC1CC1   < 2000 nM
4  Cc1ccc(C2=CCNCC2)cc1C(=O)N[C@H](C)c1cccc2ccccc12   < 2000 nM
5  C[C@@H](NC(=O)c1cc(C2=CCN(C)CC2)ccc1Cl)c1cccc2ccccc12  < 10000 nM
6  COc1ccc([C@@H](C)NC(=O)c2cc(N3C[C@H]4CC[C@@H](C3)N4)ccc2C)cc1-c1cnn(C)c1 [Example 266, hydrochloride salt]   < 2000 nM

Source listed as patent US20240383852A1.
